target.or.system: Integrin alpha-IIb/beta-3 (Homo sapiens, UniProt P05106+P08514)
Sequence (P05106 27-788 limits assumed): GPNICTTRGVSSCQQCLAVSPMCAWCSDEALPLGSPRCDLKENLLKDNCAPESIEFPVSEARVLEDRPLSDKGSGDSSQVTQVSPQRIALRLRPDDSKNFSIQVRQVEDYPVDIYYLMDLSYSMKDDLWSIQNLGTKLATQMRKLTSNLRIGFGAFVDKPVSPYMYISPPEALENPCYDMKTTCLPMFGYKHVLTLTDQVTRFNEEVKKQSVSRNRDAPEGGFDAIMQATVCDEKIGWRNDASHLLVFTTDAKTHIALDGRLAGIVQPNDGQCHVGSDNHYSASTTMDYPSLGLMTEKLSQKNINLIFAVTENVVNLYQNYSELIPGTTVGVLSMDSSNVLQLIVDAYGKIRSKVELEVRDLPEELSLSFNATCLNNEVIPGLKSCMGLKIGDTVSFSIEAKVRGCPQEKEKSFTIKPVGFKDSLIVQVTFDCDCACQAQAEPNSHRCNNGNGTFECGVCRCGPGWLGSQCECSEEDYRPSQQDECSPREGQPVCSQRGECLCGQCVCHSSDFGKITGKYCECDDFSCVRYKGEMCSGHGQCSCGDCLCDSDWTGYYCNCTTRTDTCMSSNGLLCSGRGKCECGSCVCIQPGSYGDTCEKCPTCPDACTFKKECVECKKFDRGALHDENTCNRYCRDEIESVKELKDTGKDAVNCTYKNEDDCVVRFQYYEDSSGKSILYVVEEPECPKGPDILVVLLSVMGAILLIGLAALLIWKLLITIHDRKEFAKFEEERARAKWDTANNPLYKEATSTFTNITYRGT
Sequence (P08514 32-887 limits assumed): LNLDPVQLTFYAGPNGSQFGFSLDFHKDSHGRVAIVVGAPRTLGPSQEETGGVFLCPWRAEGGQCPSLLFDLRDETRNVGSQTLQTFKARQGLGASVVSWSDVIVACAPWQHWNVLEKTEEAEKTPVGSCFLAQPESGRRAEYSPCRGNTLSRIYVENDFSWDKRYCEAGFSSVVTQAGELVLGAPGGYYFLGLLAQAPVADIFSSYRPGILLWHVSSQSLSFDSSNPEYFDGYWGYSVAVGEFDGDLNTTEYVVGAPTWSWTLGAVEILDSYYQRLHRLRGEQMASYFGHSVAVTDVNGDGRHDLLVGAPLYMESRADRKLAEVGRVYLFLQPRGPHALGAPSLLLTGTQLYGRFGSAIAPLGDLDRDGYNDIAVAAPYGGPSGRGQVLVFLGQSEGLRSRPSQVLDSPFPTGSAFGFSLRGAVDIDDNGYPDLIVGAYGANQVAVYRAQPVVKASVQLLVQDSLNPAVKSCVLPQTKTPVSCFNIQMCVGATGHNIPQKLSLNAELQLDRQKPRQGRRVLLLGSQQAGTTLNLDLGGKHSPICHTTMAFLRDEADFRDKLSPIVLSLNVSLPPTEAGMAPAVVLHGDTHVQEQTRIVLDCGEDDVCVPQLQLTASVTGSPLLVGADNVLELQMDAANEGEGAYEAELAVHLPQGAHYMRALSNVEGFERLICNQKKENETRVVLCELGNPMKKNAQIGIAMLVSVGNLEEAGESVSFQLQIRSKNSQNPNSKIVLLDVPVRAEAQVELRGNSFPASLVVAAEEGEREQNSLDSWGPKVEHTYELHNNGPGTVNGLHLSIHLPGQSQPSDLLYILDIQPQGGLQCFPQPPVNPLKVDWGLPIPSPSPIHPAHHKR
Sequence (P08514 891-1039 limits assumed): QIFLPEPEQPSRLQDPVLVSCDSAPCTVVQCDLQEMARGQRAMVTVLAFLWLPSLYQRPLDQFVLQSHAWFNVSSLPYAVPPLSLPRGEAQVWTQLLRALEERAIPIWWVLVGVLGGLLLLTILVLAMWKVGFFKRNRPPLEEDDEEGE
protocol.text: Inhibition of [125I]fibrinogen binding to activated human platelets
Type: functional
quantity: IC50 (µM)
Report as a plain number; the unit µM is understood.

Which value of IC50 has been reported for N=C(N)c1ccc(C2=NOC(CC(=O)NCCC(=O)O)C2)cc1 (stereo unspecified) in the records?
0.01

###

protocol.text: Inhibition of interaction between HUVEC cells and Vitronectin
Type: cell-based, Homo sapiens
quantity: pIC50
Keep it numeric: pIC50 is minus log10 of the concentration in mol/L.

Which value of pIC50 has been reported for N=C(N)c1ccc(C2=NOC(CC(=O)NCCC(=O)O)C2)cc1 (stereo unspecified) in the records?
3.70
